test system: OVCAR-4; assay: NCI tumour cell line growth inhibition, 48 h
The source made the active and inactive calls. Rule as the data show it: active = GI50 up to about 1.1 µM and inactive = higher.
Outcome codes: active, inactive

{"columns": ["molecule", "target or test system", "qualitative label"],
 "data": [
  ["C=CCNC(=O)/C=C\\C(=O)O", "OVCAR-4", "inactive"],
  ["CCOC(=O)CCC(NC(=O)c1ccc(Nc2nc3ccc(C(F)(F)F)cc3nc2-c2ccccc2)cc1)C(=O)OCC (stereo unspecified)", "OVCAR-4", "inactive"],
  ["CN1CC(c2ccccc2)N(CCCCN2CC(c3ccccc3)N(C)CC2c2ccccc2)CC1c1ccccc1 (stereo unspecified)", "OVCAR-4", "inactive"],
  ["COc1cc2c3c(c4ccc(O)cc4c2cc1OC)[C@@H](O)[C@@H]1CCCN1C3", "OVCAR-4", "active"],
  ["CCOC(=O)c1nnn(CCCCO)c1C(=O)OCC", "OVCAR-4", "inactive"],
  ["N#CC1=C(N2CCOCC2)CCC1", "OVCAR-4", "inactive"]
]}

###

tested on: NCI-H522; experiment: NCI tumour cell line growth inhibition, 48 h
Activity calls are given as the source filed them. Rule as the data show it: active = GI50 up to about 1.1 µM and inactive = higher.

{"columns": ["molecule", "target or test system", "GI50"],
 "data": [
  ["S=P(N1CC1)(N1CC1)N1CC1", "NCI-H522", "101 µM (inactive)"],
  ["CC1(O)CCC2(C#N)CCC1C2O (stereo not given)", "NCI-H522", "50.6 µM (inactive)"],
  ["COC(=O)C12CC3CC(C1)CC(C(=O)OC)(C3)C2", "NCI-H522", "> 100 µM (inactive)"],
  ["OC1OC(c2ccc[nH]2)C(F)(F)C(F)(F)C1(F)F (stereo not given)", "NCI-H522", "> 100 µM (inactive)"],
  ["CSc1ccc2c(cc1=O)C(NC(=O)c1ccc(C#N)cc1)CCc1cc(O)c(O)c(O)c1-2 (stereo not given)", "NCI-H522", "15.7 µM (inactive)"]
]}

###

tested on: SW-620; assay: NCI tumour cell line growth inhibition, 48 h
Calls of active or inactive are those of the source. No stated cut-off is given here; in the data, active = GI50 up to about 1.1 µM and inactive = higher.
Outcome codes: T = active, F = inactive

{"columns": ["compound", "target or test system", "qualitative label"],
 "data": [
  ["CC(C)(C)OC(=O)N/N=C(/N)Cc1ccccc1", "SW-620", "F"],
  ["O=C(/C=C(\\O)C(=O)O)/C=C(\\O)c1ccccc1Cl", "SW-620", "F"],
  ["CCOC(=O)c1ccc(NCc2ccc3oc(=O)c(-c4ccccc4)nc3c2)cc1", "SW-620", "F"],
  ["CC1=Nc2c(C#N)ncn2N=C(C)C1", "SW-620", "F"],
  ["CC(=O)NC(CCCNC(=O)OCc1ccccc1)C(=O)O (stereo not given)", "SW-620", "F"],
  ["COc1cc2c(c(OC)c1OC)-c1ccc(SC)c(=O)cc1C(CC(=O)Oc1cccc(F)c1)C2 (stereo not given)", "SW-620", "T"],
  ["Cc1ccc(NC(=O)CC(=O)n2nc(-c3ccccc3)c(/N=N\\c3ccccc3[N+](=O)[O-])c2-c2ccccc2)cc1", "SW-620", "F"],
  ["O=C1NC(c2ccccc2)(c2ccccc2)C(=O)N1CCCCCCN1C(=O)NC(c2ccccc2)(c2ccccc2)C1=O", "SW-620", "F"],
  ["CN1N=C(Nc2ccccc2)Sc2c1cnn(-c1ccccc1)c2=O", "SW-620", "F"],
  ["O=C1c2ccccc2C(=O)c2c(OCCOCCO)cccc21", "SW-620", "F"],
  ["Nc1ncn(C2OC(COP(=O)(O)O)C(O)C2O)c(=O)n1 (stereo not given)", "SW-620", "F"],
  ["Cc1ccc(C2SC(=N)Nc3c2c(C)nn3C(=O)c2ccncc2)cc1 (stereo not given)", "SW-620", "F"],
  ["CC1(C)CC(=O)C(CC2C(=O)CCCC2=O)C(=O)C1", "SW-620", "F"],
  ["Cc1nn(C(=O)c2ccncc2)c2c1C(c1ccc(Cl)cc1)SC(=N)N2 (stereo not given)", "SW-620", "F"],
  ["CC(C)CCC[C@@H](C)[C@H]1CC[C@H]2[C@@H]3CC[C@H]4C[C@H](N)CC[C@]4(C)[C@H]3CC[C@]12C", "SW-620", "F"],
  ["CC1(C)OC([C@H](O)CO)C([C@H]2NCCS2)O1 (stereo not given in full)", "SW-620", "F"],
  ["COc1ccc(C(c2ccccc2)N2C(=O)CCC2C(=O)O)cc1OC (stereo not given)", "SW-620", "F"],
  ["Cc1cc(S(N)(=O)=O)c(S/C(=N\\Nc2ccc([N+](=O)[O-])cc2)c2ccc(Cl)cc2)cc1Cl", "SW-620", "F"],
  ["Cc1ccc(Oc2ccc([N+](=O)[O-])cc2[N+](=O)[O-])c(C)c1", "SW-620", "F"],
  ["COC(=O)C1=C(c2ccc(OC)c(OC)c2)OC(c2ccc(OC)c(OC)c2)C1 (stereo not given)", "SW-620", "F"],
  ["O=S(=O)(NCn1ccc2ccccc21)c1ccccc1", "SW-620", "F"],
  ["CC(C)CCCC(C)[C@H]1CC[C@H]2n3c(nnc3-c3ccccc3)CCC[C@]12C (stereo not given in full)", "SW-620", "F"],
  ["Cc1ccc2nc3cc(C)c(=O)cc-3sc2c1", "SW-620", "F"],
  ["CC1CC(C)C2OC2(C)C[C@H](C)C(=O)NC(C)C(=O)N(C)[C@H](Cc2c(Br)[nH]c3ccccc23)C(=O)N[C@@H](c2ccc(O)cc2)CC(=O)O1 (stereo not given in full)", "SW-620", "T"],
  ["CSc1nnc(SCc2nn3c(=O)cc(C)nc3s2)s1", "SW-620", "F"],
  ["O=C(Nc1nc2ccc([N+](=O)[O-])cc2[n+]([O-])n1)C(F)(F)F", "SW-620", "F"],
  ["COC12OC3CC4(C)C(=CC3OC(OC(C)C1O)C2O)CCC1C4CCC2(C)C(c3ccc(=O)oc3)CCC12O (stereo not given)", "SW-620", "T"],
  ["CN(C)c1ccc(/C=C(\\NC(=O)c2ccccc2)C(=O)NC(CC(=O)O)C(=O)O)cc1 (stereo not given)", "SW-620", "F"],
  ["CCCCCC(/C=C/[C@@H]1[C@@H](C(O)CCCCCC(=O)OC)C(=O)C[C@H]1O[Si](C)(C)C(C)(C)C)OCOCCOC (stereo not given in full)", "SW-620", "F"],
  ["N=c1oc2ccc([N+](=O)[O-])cc2cc1C(=O)NCc1ccccc1", "SW-620", "F"],
  ["COc1c2cc([N+](=O)[O-])cc1CNC(=O)CN1CCOCCOCCN(CCOCCOCC1)CC(=O)NC2", "SW-620", "F"],
  ["CC1OC(NCCNCCNC2OC(C)C(O)C(O)C2O)C(O)C(O)C1O (stereo not given)", "SW-620", "F"],
  ["Nc1nn2c(=O)c3ccccc3nc2s1", "SW-620", "F"],
  ["O=c1[nH]c(C2CCCCC2)nc2cc(Cl)ccc12", "SW-620", "F"],
  ["COc1cc(CC2c3cc(OC)c(OC)cc3CCN2C)c(Oc2cc3c(cc2OC)-c2c(O)c(OC)cc4c2C(C3)N(C)CC4)cc1OC (stereo not given)", "SW-620", "F"],
  ["CC(=O)n1nc(-c2[nH]c(C)c(-c3nn(C(C)=O)c(=S)o3)c2C)oc1=S", "SW-620", "F"],
  ["O=[N+]([O-])C(=C(Cl)Cl)C(Cl)=C(Cl)Cl", "SW-620", "T"],
  ["O=C(NCCN1CCOCC1)c1ccc2cc(C(=O)N3CC(CCl)c4ccc([N+](=O)[O-])cc43)[nH]c2c1 (stereo not given)", "SW-620", "F"],
  ["COc1c(NC(C)=O)cc(C)cc1NC(C)=O", "SW-620", "F"],
  ["O=C1C(Cl)=C(Nc2ccc(OC(F)(F)F)cc2)C(=O)c2c(O)ccc(O)c21", "SW-620", "T"]
]}
